Molecular target: T1, Cynomolgus Monkey VSIG4-L-His (cynomolgus monkey)
T1 construct: ECD with His tag; also called cyVSIG4-L; cyno VSIG4-L-His
T1 chain: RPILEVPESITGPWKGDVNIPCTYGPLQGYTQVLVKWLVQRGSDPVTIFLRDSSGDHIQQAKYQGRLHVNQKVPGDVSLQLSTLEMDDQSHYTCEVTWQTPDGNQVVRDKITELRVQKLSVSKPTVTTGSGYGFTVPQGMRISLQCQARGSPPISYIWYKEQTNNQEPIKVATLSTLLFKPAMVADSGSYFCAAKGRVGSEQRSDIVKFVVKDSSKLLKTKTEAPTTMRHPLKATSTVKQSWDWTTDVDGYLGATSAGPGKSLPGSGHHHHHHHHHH
Assay: BLI (Octet), IgG on AHC sensor, antigen 100 nM
Examples of binders with documented Kd follow.

{"Binder": "16E10 mouse/human chimeric IgG4 (S228P) kappa (antibody, V domains shown) VH: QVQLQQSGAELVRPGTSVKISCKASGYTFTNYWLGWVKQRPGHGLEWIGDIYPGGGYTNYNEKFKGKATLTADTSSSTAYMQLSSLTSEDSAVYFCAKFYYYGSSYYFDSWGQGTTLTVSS VL: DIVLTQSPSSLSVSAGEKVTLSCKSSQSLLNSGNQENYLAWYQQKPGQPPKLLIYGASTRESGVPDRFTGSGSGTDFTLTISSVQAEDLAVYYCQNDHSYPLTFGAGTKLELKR", "Kd": "37.6 nM"}
{"Binder": "13H11 mouse/human chimeric IgG4 (S228P) kappa (antibody, V domains shown) VH: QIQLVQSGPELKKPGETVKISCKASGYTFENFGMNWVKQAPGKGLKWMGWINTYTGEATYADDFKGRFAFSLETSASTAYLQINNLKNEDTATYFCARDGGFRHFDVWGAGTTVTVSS VL: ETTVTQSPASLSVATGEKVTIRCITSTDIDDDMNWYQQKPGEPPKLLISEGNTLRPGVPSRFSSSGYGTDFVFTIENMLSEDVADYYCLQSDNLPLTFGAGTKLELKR", "Kd": "20.3 nM"}

binder 14D12 mouse/human chimeric IgG4 (S228P) kappa (antibody, V domains shown) VH: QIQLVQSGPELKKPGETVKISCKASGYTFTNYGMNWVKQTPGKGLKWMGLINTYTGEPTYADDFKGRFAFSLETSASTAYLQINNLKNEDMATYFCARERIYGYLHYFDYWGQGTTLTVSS VL: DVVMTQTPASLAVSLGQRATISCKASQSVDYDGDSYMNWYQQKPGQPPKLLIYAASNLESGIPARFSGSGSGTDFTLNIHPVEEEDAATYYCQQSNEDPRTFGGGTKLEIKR , Kd observed: 16.1 nM
